measured-target: MASP-2 CCP2-SP (Homo sapiens (Human))
Sequence (O00187 445-686): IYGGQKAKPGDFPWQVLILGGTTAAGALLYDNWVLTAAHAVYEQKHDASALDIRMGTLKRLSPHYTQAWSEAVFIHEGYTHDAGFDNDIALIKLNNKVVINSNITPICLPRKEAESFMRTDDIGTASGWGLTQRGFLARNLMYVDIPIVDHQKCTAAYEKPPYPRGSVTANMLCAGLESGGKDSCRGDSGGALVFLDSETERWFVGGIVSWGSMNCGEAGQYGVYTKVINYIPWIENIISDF
Sequence (O00187 364-432 partner): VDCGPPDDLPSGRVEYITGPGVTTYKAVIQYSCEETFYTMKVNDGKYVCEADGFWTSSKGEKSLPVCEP
test: MASP-2 co-crystallization, X-ray crystallography and structure analysis (H-bonds, van der Waals contacts);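 on Ligand-pharmacophore element distance, pharmacophore element C3: distance from averaged pharmacophore element to bound ligand; missing value means element absent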
condition-context: Table A4-1; element C3
Structures can show the parent of a compound that is named as a salt.
test-readout: Ligand-pharmacophore element distance, pharmacophore element C3

1. C[C@H](NC(=O)[C@H](N)CCCc1ccccc1)C(=O)NCc1ccc(C(=N)N)cc1.Cl.Cl [1042_2]; 0
2. CC(NC(=O)C1CC(Cc2ccccc2)CN1)C(=O)NCc1cnc2c(c1)c(Cl)cn2C.Cl.Cl (mixture of isomers) [1450_A]; 0
3. C[C@H](NC(=O)[C@H]1C[C@@H](c2ccccc2)CCN1)C(=O)NCc1cc(Cl)ccc1O.Cl [1078_1]; 0
4. Cc1nc(N)ccc1CNC(=O)[C@H](C)NC(=O)[C@H]1C[C@@H](c2ccccc2)CCN1 [compound 1253, Dihydrochloride]; 0.07
5. C[C@H](NC(=O)[C@H]1C[C@@H](c2ccccc2)CCN1)C(=O)NCc1cc(Cl)ccc1O.Cl [1078_3]; 0
6. C[C@H](NC(=O)[C@H]1C[C@@H](c2ccccc2)CCN1)C(=O)NCc1cc(Cl)ccc1O.Cl [1078_10]; 0
7. Cc1cnc(NCCc2ccccc2)c(=O)n1CC(=O)NCc1ccc2nc(N)[nH]c2c1; 0
8. C[C@H](NC(=O)[C@H]1Cc2c([nH]c3ccccc23)CN1)C(=O)NCc1ccc(C(=N)N)cc1.Cl.Cl [1097_1]; 0
9. Cc1nc(N)ccc1CNC(=O)[C@H](C)NC(=O)[C@H]1C[C@H](Cc2cc(-c3ccccc3)cs2)CN1 [compound 1399, Dihydrochloride]; 0.14
10. Cc1cccc([C@H]2CN[C@@H](C(=O)N[C@@H](C)C(=O)NCc3ccc(N)nc3C)C2)c1 [compound 1257, Dihydrochloride]; 0.1
11. Cc1nc(N)ccc1CNC(=O)[C@H](C)NC(=O)[C@H]1C[C@@H](c2cccc3ccccc23)CCN1.Cl.Cl [1297_2]; 0.17
12. C[C@H](NC(=O)[C@H]1C[C@@H](c2ccccc2)CCN1)C(=O)NCc1cc(Cl)ccc1O.Cl [1078_7]; 0
13. Cc1nc(N)ccc1CNC(=O)[C@H](C)NC(=O)[C@H]1C[C@H](Cc2cccc(Cl)c2)CN1.Cl.Cl [1328_1]; 0.4
14. C[C@H](NC(=O)[C@H]1C[C@H](Cc2ccccc2)CN1)C(=O)NCc1ccc(C(=N)N)cc1.Cl.Cl [1306_2]; 0
15. C[C@H](NC(=O)[C@H](N)CCc1ccccc1)C(=O)NCc1ccc(N)nc1.Cl.Cl [1007_2]; 0

* * *

measured-target: MASP-2 CCP2-SP (Homo sapiens (Human))
test: MASP-2 co-crystallization, X-ray crystallography and structure analysis (H-bonds, van der Waals contacts)
condition-context: Table A1 (H-Bonds); ASP 627 OD2
Counter-ions that a name gives are not always drawn.
If the reported H-bond distance to MASP-2 ASP 627 atom OD2 equals or exceeds 3, assign yes. If not, assign no.

1) Cc1nc(N)ccc1CNC(=O)[C@H](C)NC(=O)[C@H]1C[C@@H](c2ccccc2)CCN1C; yes
2) Cc1nc(N)ccc1CNC(=O)[C@H](C)NC(=O)[C@H]1C[C@H](Cc2cccc(-c3ccccc3)c2)CN1; yes
3) Cc1nc(N)ccc1CNC(=O)[C@H](C)NC(=O)[C@H]1C[C@H](Cc2ccccc2)CN1; yes
4) C[C@H](NC(=O)[C@H]1C[C@@H](c2ccccc2)CN1)C(=O)NCc1ccc2c(N)nccc2c1; no
5) Cc1nc(N)ccc1CNC(=O)[C@H](C)NC(=O)[C@H]1C[C@H](Cc2ccc3ccccc3c2)CN1; yes
6) Cc1nc(N)ccc1CNC(=O)[C@H](C)NC(=O)[C@H]1C[C@H](Cc2ccc(-c3ccccc3)cc2)CN1; yes
7) C[C@H](NC(=O)[C@H]1C[C@H](Cc2ccccc2)CN1)C(=O)NCc1ccc(C(=N)N)cc1; no
8) Cc1nc(N)ccc1CNC(=O)[C@H](C)NC(=O)[C@H]1C[C@H](Cc2cc(-c3ccccc3)cs2)CN1 [compound 1399, Dihydrochloride]; yes
9) Cc1nc(N)ccc1CNC(=O)[C@H](C)NC(=O)[C@H]1C[C@H](Cc2ccccc2Br)CN1 [compound 1372, Di-trifluoroacetate salt]; yes
